Where do these numbers come from? They come from patent US20240148895A1.

Give measured DC50 for each item. Keep answers brief.
# study target: HiBiT tagged BRD4-BD1 protein in HEK293/LgBiT/hPGK/HiBiT-BRD4-BD1 cells (Homo sapiens, UniProt O60885)
# protocol summary: BET BD1 domain degradation assay
# Type: cell-based
# Design: HiBit-linker-BRD4 BD1(1-209); host or cells: HEK293 (ATCC CRL-1573) stably transduced with LgBiT and HiBiT-BRD4-BD1
# stated conditions: concentration for 50% reduction in HiBiT-BRD4-BD1 protein level, 3 hours, read-out: Absolute DC50—3 h (nM) HEK293_HiBiT-BRD4-BD1
Give bare numbers, in nM.

molecule	unit tag	recorded measurement
COc1ccc(C(=O)NC2(C)CCN(C3CCN(c4nc(C(CO)(CC(C)C)c5cccs5)c5cc(-c6cn(C)c(=O)c7[nH]ccc67)ccc5n4)CC3)CC2)cc1N1CCC(=O)NC1=O (stereo not drawn)	nM	0.19

From here, focus on the item given below.
Q) Record request: DC50 value, item COc1ccc(-n2cc(CN3CCN(CC4CCN(c5nc(C(CO)(OC6CC6)c6ccccc6)c6cc(-c7cc(C)c(=O)n(C)c7)ccc6n5)CC4)CC3)nn2)cc1N1CCC(=O)NC1=O (stereo not drawn)
A) 0.19

====

# study target: BRD4(BD1+BD2) protein (Homo sapiens, UniProt O60885)
# Construct: 5 μL of BRD4(BD1+BD2) protein solution prepared to 3.6 ng/μL
# protocol summary: BRD4 binding inhibition assay (TR-FRET)
# stated conditions: BRD4(BD1+BD2) TR-FRET Assay Kit, reaction 2 hours at room temperature; read-out: IC50 (concentration necessary for 50% inhibition of BRD4 binding activity)
readout: IC50 (nM)
Answers are plain numbers, in nM.

Please supply IC50 for each of the following items, keeping them in order.
1. COc1cc(=O)n(C)cc1-c1ccc2nc(N)nc(C(CO)(CC3CC3)c3cccnc3)c2c1 (stereo not drawn)
2. Cn1cc(-c2ccc3nc(N4CCC(OC5CCNCC5)CC4)nc(C(CO)(c4ccccc4)c4ccccc4)c3c2)c2ccoc2c1=O
3. COc1cc(=O)n(C)cc1-c1ccc2nc(N3CCC(N4CCC(C)(N)CC4)CC3)nc(C(CO)(OC3CC3)c3cccc4ccccc34)c2c1 (stereo not drawn)
4. CNCCN(C)C(=O)OCC(OC1CC1)(c1ccccc1)c1nc(N2CCC(CN3C[C@@H](C)NC[C@@H]3C)CC2)nc2ccc(-c3cn(C)c(=O)cc3OC)cc12 (stereo partly drawn)
5. C[C@@H]1CN(CC2CCN(c3nc(C(CN)(OC4CC4)c4ccccc4)c4cc(-c5cn(C)c(=O)c6[nH]ccc56)ccc4n3)CC2)[C@@H](C)CN1 (stereo partly drawn)
6. C[C@@H]1CN(C2CCN(c3nc(C(CN)(OC4CC4)c4ccccc4)c4cc(-c5cn(C)c(=O)c6[nH]ccc56)ccc4n3)CC2)[C@@H](C)CN1 (stereo partly drawn)

A)
1. 130
2. 87
3. 440
4. 91
5. 82
6. 61

====

# study target: BRD4(BD1+BD2) protein (Homo sapiens)
# Construct: 5 μL of BRD4(BD1+BD2) protein solution prepared to 3.6 ng/μL
# protocol summary: BRD4 binding inhibition assay (TR-FRET)
# stated conditions: BRD4(BD1+BD2) TR-FRET Assay Kit, reaction 2 hours at room temperature; read-out: IC50 (concentration necessary for 50% inhibition of BRD4 binding activity)
readout: pIC50
Numbers only, as −log10 of the molar value.

Completed entries (count: 5):
> print(dat)
                                   molecule                          study.target  readout  recorded.measurement
1  Cn1cc(-c2ccc3nc(N4CCC(N5CCC(C)(N)CC5)CC4)nc(C(CO)(OC4CC4)c4ccccc4)c3c2)c2cc[nH]c2c1=O (stereo not shown)  BRD4(BD1+BD2) protein (Homo sapiens)    pIC50                  7.10
2  Cc1cc(-c2ccc3nc(N)nc(C(CO)(OC4CC4)c4ccccc4)c3c2)cn(C)c1=O (stereo not shown)  BRD4(BD1+BD2) protein (Homo sapiens)    pIC50                  7.59
3  CCCC(CO)(CCC)c1nc(N2CCC(CN3CCNCC3)CC2)nc2ccc(-c3cn(C)c(=O)cc3OC)cc12  BRD4(BD1+BD2) protein (Homo sapiens)    pIC50                  7.09
4  C#CCNC1(C)CCN(C2CCN(c3nc(C(CO)(OC4CC4)c4ccccc4)c4cc(-c5cn(C)c(=O)c6[nH]ccc56)ccc4n3)CC2)CC1 (stereo not shown)  BRD4(BD1+BD2) protein (Homo sapiens)    pIC50                  7.24
5  C#CC1CCN(c2nc(C(CO)(OC3CC3)c3ccccc3)c3cc(-c4cn(C)c(=O)c5[nH]ccc45)ccc3n2)CC1 (stereo not shown)  BRD4(BD1+BD2) protein (Homo sapiens)    pIC50                  7.33

Need pIC50 for each of these molecules.
1. C#CC1(O)CCN(C2CCN(c3nc(C(CO)(OC4CC4)c4ccccc4)c4cc(-c5cn(C)c(=O)c6[nH]ccc56)ccc4n3)CC2)CC1 (stereo not shown)
2. Cc1cc(-c2ccc3nc(N)nc([C@@](CO)(OC4CC4)c4ccccc4)c3c2)cn(C)c1=O

A)
7.57
7.60
